Hey, just so you know, these numbers are from ChEMBL document CHEMBL1151436.

# experiment: Protein binding in mouse plasma at 0.1 to 100 ug/mL by equilibrium dialysis
# Assay type: ADME, cell-free
# condition_context: read-out: PB (converted)
result_type: fraction unbound

[ask] Fill in: fraction unbound of CCCCCCCCCCNCCN[C@@]1(C)C[C@H](O[C@H]2[C@H](Oc3c4cc5cc3Oc3ccc(cc3Cl)[C@@H](O)[C@@H](NC(=O)[C@@H](CC(C)C)NC)C(=O)N[C@@H](CC(N)=O)C(=O)N[C@H]5C(=O)N[C@H]3C(=O)N[C@H](C(=O)N[C@H](C(=O)O)c5cc(O)c(CNCP(=O)(O)O)c(O)c5-c5cc3ccc5O)[C@H](O)c3ccc(c(Cl)c3)O4)O[C@H](CO)[C@@H](O)[C@@H]2O)O[C@@H](C)[C@H]1O is ___
[reply] 0.05
